The reported numbers originate from patent US20230414780A1.

Assignment: determine reported log10 of kon for the given binders.
# experimentalTarget: T1, human TfR ectodomain fused to a mouse IgG1 Fc fragment (human, UniProt P02786 89-760)
# T1 construct: extracellular domain; ectodomain fused to the N-terminal end of the Fc, made in-house; not shown: mouse IgG1 Fc fragment
# T1 sequence (P02786 89-760): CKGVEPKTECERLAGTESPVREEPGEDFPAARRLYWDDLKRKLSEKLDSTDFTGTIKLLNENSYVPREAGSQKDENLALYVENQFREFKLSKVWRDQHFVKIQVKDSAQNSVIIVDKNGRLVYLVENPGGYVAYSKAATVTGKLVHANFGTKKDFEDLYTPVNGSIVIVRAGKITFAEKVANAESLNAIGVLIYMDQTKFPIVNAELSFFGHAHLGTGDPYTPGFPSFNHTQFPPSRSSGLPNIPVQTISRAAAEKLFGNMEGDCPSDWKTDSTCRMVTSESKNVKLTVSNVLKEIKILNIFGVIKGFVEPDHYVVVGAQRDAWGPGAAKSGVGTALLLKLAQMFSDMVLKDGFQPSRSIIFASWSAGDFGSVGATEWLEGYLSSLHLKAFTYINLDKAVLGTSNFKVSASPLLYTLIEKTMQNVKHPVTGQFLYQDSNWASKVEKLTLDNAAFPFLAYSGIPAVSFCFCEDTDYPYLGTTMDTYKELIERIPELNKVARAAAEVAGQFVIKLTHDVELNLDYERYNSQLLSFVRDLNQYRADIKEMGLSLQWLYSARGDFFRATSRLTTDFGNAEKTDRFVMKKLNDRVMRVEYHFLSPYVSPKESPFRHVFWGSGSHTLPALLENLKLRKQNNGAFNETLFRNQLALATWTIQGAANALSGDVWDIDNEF
# protocolText: SPR, kinetic
Reminder: these figures are log10 of reported kon, in M⁻¹ s⁻¹ before transformation.

Task item: Recorded log10 of kon of VHH A (C5) (VHH, form with the C-terminal myc-His6 tag (x = 1), since the VHHs were detected with anti-6His or anti-cMyc; the same holds for m12 to m126) VHH: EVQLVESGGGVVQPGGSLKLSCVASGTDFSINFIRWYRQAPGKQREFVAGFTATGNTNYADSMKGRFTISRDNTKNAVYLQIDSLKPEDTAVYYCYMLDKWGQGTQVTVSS , please.
Reply: 5.82

Task item: May I ask what log10 of kon has been recorded for E4 (VHH) VHH: EVQLVESGGGLVQAGDSLRLSCTASGLPLSNYPMGWFRRAPGKERELIASISRTGDGTYYADSSVKGRFTISRDNAENTVSLQMNSLKPEDTAVYYCGAGINPTKYWGQGTQVTVSS ?
Reply: 6.18

Task item: State the recorded log10 of kon for this entry: VHH A8 (C5^V8) (VHH) VHH: EVQLVESGGGVVQPGGSLKLSCVASGTDFSINFIRWYRQAPGKQREFVAGFTATGNTNYADSMKGRFTISRDNTKNAVYLQIDSLKPEDTAVYYCYMLAKWGQGTQVTVSS
Reply: 5.70

Task item: Which value of log10 of kon has been reported for B8^V3 (VHH) VHH: EVQLVESGGGVVQPGGSLRLSCAASGEIFSINFMRWYREAPGKQREWVAGFTRDGSTNYPDSAKGRFTISRDNAKNTVYLQIDSLKPEDTAVYYCYMLDTWGQGTQVTVSS in the records?
Reply: 4.83

Task item: // lookup log10 of kon for B8^V35 (VHH) VHH: EVQLVESGGGVVQPGGSLRLSCAASGEIRSINFMRWYRQAPGKQREWVAGFTRDGSLNYPDSAKGRFTISRDNAKNTVYLQIDSLKPEDTAVYYCYMLDTWGKGTQVTVSS
Reply: 5.84

Task item: Which log10 of kon value is on record for H1 (VHH, also called phage-H1 (as tracer)) VHH: EVQLVESGGGLVQPGGSLRLSCAASGFASHLYAIGWFRQAPGKEREKVSCISSNDGSTYYADSVKGRFTISRDTVKDMVYLQMNSLKPEDTAVYYCATDLTVHCFMAEYDWWGQGTQVTVSS ?
Reply: 5.03

Task item: Reported log10 of kon, binder B8^V27 (VHH) VHH: EVQLVESGGGVVQPGGSLRLSCAASGEIFSINFMRWYRQAPGKQREWVAGFTRDGSTVYPDSAKGRFTISRDNAKNTVYLQIDSLKPEDTAVYYCYMLDTWGQGTQVTVSS : ____
Reply: 6.00

Task item: Which measured log10 of kon value corresponds to B8^h1 (VHH) VHH: EVQLVESGGGVVQPGGSLRLSCAASGEIFSINFMRWYRQAPGKGLEWVAGFTRDGSTNYPDSVKGRFTISRDNAKNTVYLQMNSLRPEDTAVYYCYMLDTWGQGTQVTVSS ?
Reply: 5.65
